IC50 listing for selected molecules.
molecular target: recombinant human MMP-1 (Homo sapiens); construct: made in house; host or cells: transfected HT-1080 cells; experiment: biochemical; conditions: Inhibition Table B
Sequence (P03956 100-469): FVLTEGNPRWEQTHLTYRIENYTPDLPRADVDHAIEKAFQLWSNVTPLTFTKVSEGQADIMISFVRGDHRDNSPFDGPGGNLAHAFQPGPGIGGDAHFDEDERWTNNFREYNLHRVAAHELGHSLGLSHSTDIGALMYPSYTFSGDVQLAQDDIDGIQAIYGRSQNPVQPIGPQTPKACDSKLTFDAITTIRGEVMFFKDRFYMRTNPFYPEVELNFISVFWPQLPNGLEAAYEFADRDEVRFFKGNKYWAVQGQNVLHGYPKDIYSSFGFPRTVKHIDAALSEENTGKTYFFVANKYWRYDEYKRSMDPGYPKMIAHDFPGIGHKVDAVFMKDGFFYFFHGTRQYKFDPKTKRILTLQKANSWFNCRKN
measure name: IC50

In [3]: df
Out[3]:
                        structure_as_smiles  data_value
0  O=C(NN1CCOCC1)C1CCN(c2ccc(S(=O)(=O)C3(C(=O)NO)CCOCC3)cc2)CC1     > 10 µM
1  C=CCN(CC=C)C(=O)C1CCN(c2ccc(S(=O)(=O)C3(C(=O)NO)CCOCC3)cc2)CC1     > 10 µM
2  O=C(C1CCN(c2ccc(S(=O)(=O)C3(C(=O)NO)CCOCC3)cc2)CC1)N1CCCC1     > 10 µM

###

settings: Rat Intraveneous, 20 mpk
Counter-ions that a name gives are not always drawn.
# t1/2 per record follows
measure name: t1/2 (h)

                                   compound  data_value
0  CC(=O)N1CCC(C(=O)NO)(S(=O)(=O)c2ccc(Sc3ccccc3)cc2)CC1.Cl [Example 36]        0.65
1  COCCN1CCC(C(=O)NO)(S(=O)(=O)c2ccc(Oc3ccc(OC(F)(F)F)cc3)cc2)CC1.Cl [Example 416]        2.94
2  CN1CCC(C(=O)NO)(S(=O)(=O)c2ccc(Sc3ccccc3)cc2)CC1.Cl [Example 33]        1.91
3  Nc1ccc(Sc2ccc(S(=O)(=O)C3(C(=O)NO)CCSCC3)cc2)cc1 [Example 115]        1.36
4  Cl.O=C(NO)C1(S(=O)(=O)c2ccc(Sc3ccncc3)cc2)CCOCC1 [Example 104]        0.66
5  O=C(O)CNc1ccc(Oc2ccc(S(=O)(=O)C3(C(=O)NO)CCSCC3)cc2)cc1 [Example 117]        0.78
6  O=C(NO)C1(S(=O)(=O)c2ccc(Oc3ccccc3)cc2)CCSCC1 [Example 109]        1.12
7  O=C(NO)C1(S(=O)(=O)c2ccc(Oc3ccc(C(F)(F)F)cc3)cc2)CCN(CCN2CCOCC2)CC1 [Example 388, dihydrochloride]        0.94

###

details: Rat Intraveneous, 20 mpk
Counter-ions that a name gives are not always drawn.
measure name: t1/2 (h)

In [3]: df
Out[3]:
                                    compound  data_value
 0  O=C(NO)C1(S(=O)(=O)c2ccc(Oc3ccc(C(F)(F)F)cc3)cc2)CCN(Cc2cccnc2)CC1 [Example 390, dihydrochloride]        1.50
 1  COCCN1CCC(C(=O)NO)(S(=O)(=O)c2ccc(Oc3ccc(C(F)(F)F)cc3)cc2)CC1.Cl        2.42
 2  Cl.O=C(NO)C1(S(=O)(=O)c2ccc(Oc3ccc(-n4ccnc4)cc3)cc2)CCOCC1        0.68
 3  Cl.O=C(NO)C1(S(=O)(=O)c2ccc(Sc3ccccc3)cc2)CCN(C2CC2)CC1        1.03
 4  O=C(NO)C1(S(=O)(=O)c2ccc(Oc3ccc(C(F)(F)F)cc3)cc2)CCN(Cc2ccccn2)CC1 [Example 391, dihydrochloride]        1.45
 5  Cl.O=C(NO)C1(S(=O)(=O)c2ccc(Oc3ccc(-n4cncn4)cc3)cc2)CCS(=O)(=O)CC1        0.97
 6  O=C(NO)C1(S(=O)(=O)c2ccc(Sc3ccccc3)cc2)CCOCC1        1.06
 7  O=C(NO)C1(S(=O)(=O)c2ccc(Oc3ccccc3)cc2)CC[S+]([O-])CC1 (centres unmarked)        0.65
 8  Cl.O=C(NO)C1(S(=O)(=O)c2ccc(Oc3ccc4c(c3)OCCO4)cc2)CCN(C2CC2)CC1        3.30
 9  CC(C)c1ccc(Oc2ccc(S(=O)(=O)C3(C(=O)NO)CCOCC3)cc2)cc1        0.73
10  Cc1cc(Oc2ccc(S(=O)(=O)C3(C(=O)NO)CCNCC3)cc2)ccc1Cl.Cl        1.82
11  NCC(=O)Nc1ccc(Sc2ccc(S(=O)(=O)C3(C(=O)NO)CCSCC3)cc2)cc1        1.85
12  C#CCN1CCC(C(=O)NO)(S(=O)(=O)c2ccc(Oc3ccc(Cl)c(C)c3)cc2)CC1.Cl        0.76
13  Cl.O=C(NO)C1(S(=O)(=O)c2ccc(Oc3ccc(Cl)cc3)cc2)CCNCC1        1.81
14  O=C(NO)C1(S(=O)(=O)c2ccc(Sc3ccc(F)cc3)cc2)CCOCC1        1.10
15  O=C(NO)C1(S(=O)(=O)c2ccc(Oc3ccc(SC(F)(F)F)cc3)cc2)CCOCC1        1.71
16  O=C(NO)C1(S(=O)(=O)c2ccc(Oc3ccccc3)cc2)CCOCC1        1.71
17  C#CCN1CCC(C(=O)NO)(S(=O)(=O)c2ccc(Oc3ccc(C(C)C)cc3)cc2)CC1.Cl        0.73
18  CCN1CCC(C(=O)NO)(S(=O)(=O)c2ccc(OCc3ccc(C(F)(F)F)cc3)cc2)CC1.Cl        2.14
19  Cl.O=C(NO)C1(S(=O)(=O)c2ccc(Oc3ccc(C(F)(F)F)cc3)cc2)CCN(C2CC2)CC1        2.85

###

molecular target: recombinant human MMP-2 (Homo sapiens); assay: biochemical; settings: Inhibition Table B
measure name: IC50 (nM)

                                   molecule  measurement_units  value_operator  data_value
0  NCCCNC(=O)C1CCN(c2ccc(S(=O)(=O)C3(C(=O)NO)CCOCC3)cc2)CC1                 nM               =          90
1  CCNC(=O)C1CCCN(c2ccc(S(=O)(=O)C3(C(=O)NO)CCOCC3)cc2)C1 (stereo not shown)                 nM               =         900
2  O=C(NO)C1(S(=O)(=O)c2ccc(-c3ccc(C(F)(F)F)cc3)cc2)CCOCC1                 nM               <           1
3  N[C@H]1CCN(C(=O)C2CCN(c3ccc(S(=O)(=O)C4(C(=O)NO)CCOCC4)cc3)CC2)C1                 nM               >        1000
4  CN(C)[C@H]1CCN(C(=O)C2CCCN(c3ccc(S(=O)(=O)C4(C(=O)NO)CCOCC4)cc3)C2)C1 (stereo partly shown)                 nM               >        1000
5  CN1CCN(C(=O)C2CCN(c3ccc(S(=O)(=O)C4(C(=O)NO)CCOCC4)cc3)CC2)CC1                 nM               =        1300
6  CCOC(=O)C1CCCN(C(=O)N2CCN(c3ccc(S(=O)(=O)C4(C(=O)NO)CCOCC4)cc3)CC2)C1 (stereo not shown)                 nM               =          33

###

target: recombinant human MMP-2 (Homo sapiens, UniProt P08253); test: biochemical; details: Inhibition Table B
Sequence (P08253 110-660): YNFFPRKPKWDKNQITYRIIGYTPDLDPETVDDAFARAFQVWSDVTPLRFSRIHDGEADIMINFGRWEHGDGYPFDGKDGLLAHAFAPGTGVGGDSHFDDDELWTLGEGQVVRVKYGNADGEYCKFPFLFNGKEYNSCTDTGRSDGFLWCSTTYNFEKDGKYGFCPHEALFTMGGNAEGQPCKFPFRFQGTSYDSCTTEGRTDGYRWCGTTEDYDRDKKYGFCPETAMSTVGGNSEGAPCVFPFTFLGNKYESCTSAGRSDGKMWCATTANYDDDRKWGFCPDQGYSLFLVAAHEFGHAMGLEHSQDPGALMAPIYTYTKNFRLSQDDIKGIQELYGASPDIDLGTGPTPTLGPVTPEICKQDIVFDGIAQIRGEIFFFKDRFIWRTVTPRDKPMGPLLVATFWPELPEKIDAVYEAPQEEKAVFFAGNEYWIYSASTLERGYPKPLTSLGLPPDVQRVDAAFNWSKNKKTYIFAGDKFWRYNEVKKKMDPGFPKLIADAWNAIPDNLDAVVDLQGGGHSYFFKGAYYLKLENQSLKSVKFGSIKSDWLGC
measure name: IC50 (nM)

                                    compound  value_operator  data_value
 0  CCOC(=O)C1CCN(C(=O)C2CCCN(c3ccc(S(=O)(=O)C4(C(=O)NO)CCOCC4)cc3)C2)CC1 (stereo not drawn)               =        2500
 1  CCOC(=O)C1CCCCN1C(=O)C1CCN(c2ccc(S(=O)(=O)C3(C(=O)NO)CCOCC3)cc2)CC1 (stereo not drawn)               =        1600
 2  CN1CCN(C(=O)C2CCCN(c3ccc(S(=O)(=O)C4(C(=O)NO)CCOCC4)cc3)C2)CC1 (stereo not drawn)               =        6000
 3  O=C(NN1CCOCC1)C1CCN(c2ccc(S(=O)(=O)C3(C(=O)NO)CCOCC3)cc2)CC1               =         210
 4  CC(C)[C@H](N)C(=O)N1CCN(c2ccc(S(=O)(=O)C3(C(=O)NO)CCOCC3)cc2)CC1               =          25
 5  O=C(C1CCN(c2ccc(S(=O)(=O)C3(C(=O)NO)CCOCC3)cc2)CC1)N1CCC(O)C1 (stereo not drawn)               >        1000
 6  O=C(NC1CCCCCC1)C1CCN(c2ccc(S(=O)(=O)C3(C(=O)NO)CCOCC3)cc2)CC1               =         165
 7  O=C(NCCO)C1CCN(c2ccc(S(=O)(=O)C3(C(=O)NO)CCOCC3)cc2)CC1               =         420
 8  CN(C)C(=O)C1CCN(c2ccc(S(=O)(=O)C3(C(=O)NO)CCOCC3)cc2)CC1               =        2700
 9  Cc1cc(Oc2ccc(S(=O)(=O)C3(C(=O)NO)CCNCC3)cc2)ccc1Cl.Cl [Example 79, monohydrochloride]               =           1
10  CCOC(=O)C1CCN(C(=O)N2CCN(c3ccc(S(=O)(=O)C4(C(=O)NO)CCOCC4)cc3)CC2)CC1               =          33
11  O=C(NCCO)C1CCCN(c2ccc(S(=O)(=O)C3(C(=O)NO)CCOCC3)cc2)C1 (stereo not drawn)               >         100
12  O=C(NCc1ccccn1)C1CCN(c2ccc(S(=O)(=O)C3(C(=O)NO)CCOCC3)cc2)CC1               =         240
13  O=C(Oc1ccc([N+](=O)[O-])cc1)N1CCN(c2ccc(S(=O)(=O)C3(C(=O)NO)CCOCC3)cc2)CC1               =        12.7
14  O=C(C1CCCN(c2ccc(S(=O)(=O)C3(C(=O)NO)CCOCC3)cc2)C1)N1CCCCC1 (stereo not drawn)               =        3300
